Every entry's value here was drawn from paper PMC12525650.

- assay notes: in vivo
- Set-up: species or system female CD-1 mice (Mus musculus L.)
- run parameters: female, CD-1, mouse, in vivo; mice, plasma, oral extract 8 mg/kg; read-out: T1/2 (converted)
readout name: half-life (h)
Numbers only, in h.

Name the recorded half-life for CC(=O)OC(C)(C)/C=C/C(=O)[C@](C)(O)[C@H]1[C@H](O)C[C@@]2(C)[C@@H]3CC=C4[C@@H](C=C(O)C(=O)C4(C)C)[C@]3(C)C(=O)C[C@]12C [Cucurbitacin E, cucurbitacin E] .
8.4

====

- assay notes: HPLC pharmacokinetics of secondary metabolites in serum/plasma, liver and urine of mice after oral Sechium H387 07 extract
- Parameters: species or system female CD-1 mice (Mus musculus L.)
- run parameters: female, CD-1, mouse, plasma, po, 8 mg/kg, mice, plasma, oral extract 8 mg/kg; read-out: T1/2 (converted)
readout name: half-life (h)
One number for each entry, in h.

Need half-life of O=C(CCc1ccc(O)cc1)c1c(O)cc(O)cc1O , thanks.
4.2

====

- assay notes: in vivo
- Parameters: species or system female CD-1 mice (Mus musculus L.)
- run parameters: female, CD-1, mouse, in vivo; mice, plasma, oral extract 8 mg/kg; Table S1, unit inferred; read-out: Tmax
readout name: Tmax (h)
Answers are plain numbers, in h.

Dear colleague, I am looking for the recorded Tmax of the following compound: CC(=O)OC(C)(C)/C=C/C(=O)[C@](C)(O)[C@H]1[C@H](O)C[C@@]2(C)[C@@H]3CC=C4[C@@H](C=C(O)C(=O)C4(C)C)[C@]3(C)C(=O)C[C@]12C
2.5

====

- assay notes: in vivo
- Parameters: species or system female CD-1 mice (Mus musculus L.)
- run parameters: female, CD-1, mouse, in vivo, po, 8 mg/kg, T1/2
readout name: half-life (h)
Numbers only, in h.

Quick one: half-life for O=c1cc(-c2ccc(O)cc2)oc2cc(O)cc(O)c12 ?
5.6

====

- assay notes: in vivo
- Parameters: species or system female CD-1 mice (Mus musculus L.)
- run parameters: female, CD-1, mouse, in vivo, po, 8 mg/kg; read-out: Cmax
readout name: Cmax

Name the recorded Cmax for CC(=O)OC(C)(C)/C=C/C(=O)[C@](C)(O)[C@H]1[C@H](O)C[C@@]2(C)[C@@H]3CC=C4[C@@H](C=C(O)C(=O)C4(C)C)[C@]3(C)C(=O)C[C@]12C .
0.42 µg/mL

====

- assay notes: HPLC pharmacokinetics of secondary metabolites in serum/plasma, liver and urine of mice after oral Sechium H387 07 extract
- Set-up: species or system female CD-1 mice (Mus musculus L.)
- run parameters: female, CD-1, mouse; mice, plasma, oral extract 8 mg/kg; read-out: AUC0 ∞
readout name: AUC (ng·h/mL)
Give bare numbers, in ng·h/mL.

Which AUC value is on record for O=C(CCc1ccc(O)cc1)c1c(O)cc(O)cc1O ?
6100

====

- assay notes: in vivo
- Parameters: species or system female CD-1 mice (Mus musculus L.)
- run parameters: female, CD-1, mouse, in vivo, po, 8 mg/kg
readout name: Cmax (ng/mL)
One number for each entry, in ng/mL.

Fill blank: measured Cmax of the compound O=c1cc(-c2ccc(O)cc2)oc2cc(O)cc(O)c12 is ____.
850

====

- assay notes: in vivo
- Design: species or system female CD-1 mice (Mus musculus L.)
- run parameters: female, CD-1, mouse, in vivo; mice, plasma, oral extract 8 mg/kg; read-out: AUC0 ∞
readout name: AUC (ng·h/mL)
Answers are plain numbers, in ng·h/mL.

Fill blank: measured AUC of the molecule CC(=O)OC(C)(C)/C=C/C(=O)[C@](C)(O)[C@H]1[C@H](O)C[C@@]2(C)[C@@H]3CC=C4[C@@H](C=C(O)C(=O)C4(C)C)[C@]3(C)C(=O)C[C@]12C is ____.
1800
